So I've got a bunch of compounds here, and I need their viability, T/C values.
Test system: 519858-162-T-J1-PDC complex spheroid viability
Assay: Anticancer human tumor 519858-162-T-J1-PDC patient-derived colon adenocarcinoma cell line growth inhibition [GQUAD]
Conditions: second compound 1 µM; first compound 0.316 µM; stronger effect = lower value
A number alone suffices; assume %.

Query: viability, T/C; subject: CC(C)n1c(=O)n(C)c2cnc3cc(F)c(-c4ccc(OCCCN5CCCCC5)nc4)cc3c21 + Cc1cnc(CNC(=O)c2c(=O)c3ccc(N4CCCN(C)CC4)nc3n3c2sc2ccccc23)cn1 44.2

Query: viability, T/C; subject: C=CCn1c(=O)c2cnc(Nc3ccc(N4CCN(C)CC4)cc3)nc2n1-c1cccc(C(C)(C)O)n1 + CN(C)c1ccc(Nc2c3ccc(NC(=O)CCN4CCCC4)cc3nc3cc(NC(=O)CCN4CCCC4)ccc23)cc1 61.4

Query: viability, T/C; subject: CC1COCCN1c1cc(C2(S(C)(=N)=O)CC2)nc(-c2ccnc3[nH]ccc23)n1 (configuration not stated) + Cc1cnc(CNC(=O)c2c(=O)c3ccc(N4CCCN(C)CC4)nc3n3c2sc2ccccc23)cn1 74.4

Query: viability, T/C; subject: C=CC(=O)N1CCN(c2nc(=O)n(-c3c(C)ccnc3C(C)C)c3nc(-c4c(O)cccc4F)c(F)cc23)C(C)C1 (configuration not stated) + Cc1cnc(CNC(=O)c2c(=O)c3ccc(N4CCCN(C)CC4)nc3n3c2sc2ccccc23)cn1 68.2

Query: viability, T/C; subject: CC(=O)O[C@H]1C(=O)[C@@]2(C)[C@H]([C@H](OC(=O)c3ccccc3)[C@]3(O)C[C@H](OC(=O)[C@H](O)[C@@H](NC(=O)c4ccccc4)c4ccccc4)C(C)=C1C3(C)C)[C@]1(OC(C)=O)CO[C@@H]1C[C@@H]2O + CN(C)c1ccc(Nc2c3ccc(NC(=O)CCN4CCCC4)cc3nc3cc(NC(=O)CCN4CCCC4)ccc23)cc1 70.7

Query: viability, T/C; subject: CCCS(=O)(=O)Nc1ccc(F)c(C(=O)c2c[nH]c3ncc(-c4ccc(Cl)cc4)cc23)c1F + Cc1[nH]c2ccc(F)cc2c1-c1nc2c3cccnc3c3ncccc3c2[nH]1 99.3

Query: viability, T/C; subject: C=CC(=O)N1CCN(c2nc(=O)n(-c3c(C)ccnc3C(C)C)c3nc(-c4c(O)cccc4F)c(F)cc23)C(C)C1 (configuration not stated) + CN(C)c1ccc(Nc2c3ccc(NC(=O)CCN4CCCC4)cc3nc3cc(NC(=O)CCN4CCCC4)ccc23)cc1 56.4

----------
System: 519858-162-T-J1-PDC complex spheroid viability
Assay: Anticancer human tumor 519858-162-T-J1-PDC cell line growth inhibition [GQUAD];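 also: spheroids exposed to compounds for 7 days; 100% = DMSO vehicle control viability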
Details: second compound 1 µM; first compound 3.16 µM; stronger effect = lower value
So I've got a bunch of compounds here, and I need their viability, T/C values.
A number alone suffices; assume %.

Missing value: viability, T/C, 519858-162-T-J1-PDC complex spheroid viability, entry CC1COCCN1c1cc(-c2ccnn2C)c2ccnc(-c3ccn[nH]3)c2n1 (stereo not drawn) + CN(C)c1ccc(Nc2c3ccc(NC(=O)CCN4CCCC4)cc3nc3cc(NC(=O)CCN4CCCC4)ccc23)cc1 . Fill in? 63.4

Missing value: viability, T/C, 519858-162-T-J1-PDC complex spheroid viability, entry COc1ccc([C@@H](O)c2cc(-c3ncnc4cc(N5CCOCC5)ccc34)c(F)cc2Cl)nn1 + CN(C)c1ccc(Nc2c3ccc(NC(=O)CCN4CCCC4)cc3nc3cc(NC(=O)CCN4CCCC4)ccc23)cc1 . Fill in? 57.4

Missing value: viability, T/C, 519858-162-T-J1-PDC complex spheroid viability, entry COc1cc(C2c3cc4c(cc3C(OC3OC5COC(C)OC5C(O)C3O)C3COC(=O)C23)OCO4)cc(OC)c1O (stereo not drawn) + CN(C)c1ccc(Nc2c3ccc(NC(=O)CCN4CCCC4)cc3nc3cc(NC(=O)CCN4CCCC4)ccc23)cc1 . Fill in? 77

Values were extracted from PubChem BioAssay AID2060507.
